Quick list: EC50 per entry.
Biological target: SERCA2a-PLB complex (GFP-SERCA2a / RFP-PLB in HEK293 cells) (Homo sapiens, UniProt P16615+P26678, C36A/C41F/C46A)
Sequence (P16615 1-997 isoform P16615-2, stated change not applied): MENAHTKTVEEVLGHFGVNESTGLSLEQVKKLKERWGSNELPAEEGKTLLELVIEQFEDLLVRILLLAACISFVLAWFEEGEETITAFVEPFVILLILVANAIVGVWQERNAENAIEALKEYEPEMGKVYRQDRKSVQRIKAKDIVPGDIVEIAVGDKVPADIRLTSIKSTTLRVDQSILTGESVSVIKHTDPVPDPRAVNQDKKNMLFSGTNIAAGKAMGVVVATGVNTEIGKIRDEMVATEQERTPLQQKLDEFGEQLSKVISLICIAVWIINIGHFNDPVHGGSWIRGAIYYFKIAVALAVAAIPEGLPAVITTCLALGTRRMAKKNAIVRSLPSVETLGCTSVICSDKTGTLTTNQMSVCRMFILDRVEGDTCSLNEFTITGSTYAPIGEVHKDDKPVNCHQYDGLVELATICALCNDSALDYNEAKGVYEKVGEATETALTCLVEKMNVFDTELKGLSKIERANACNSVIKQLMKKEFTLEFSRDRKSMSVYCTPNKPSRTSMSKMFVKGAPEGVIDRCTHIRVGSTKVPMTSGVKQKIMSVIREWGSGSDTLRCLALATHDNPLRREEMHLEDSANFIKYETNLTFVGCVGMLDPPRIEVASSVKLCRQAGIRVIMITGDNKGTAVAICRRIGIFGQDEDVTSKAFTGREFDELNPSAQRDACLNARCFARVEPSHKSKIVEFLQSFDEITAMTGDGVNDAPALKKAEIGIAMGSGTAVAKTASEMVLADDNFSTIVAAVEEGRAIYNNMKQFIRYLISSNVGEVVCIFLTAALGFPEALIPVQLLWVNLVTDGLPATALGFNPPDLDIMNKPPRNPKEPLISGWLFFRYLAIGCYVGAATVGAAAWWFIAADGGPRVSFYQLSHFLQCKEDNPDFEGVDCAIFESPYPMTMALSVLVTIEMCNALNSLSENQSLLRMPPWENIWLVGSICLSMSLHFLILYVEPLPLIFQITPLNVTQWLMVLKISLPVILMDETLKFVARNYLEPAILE
Sequence (P26678 whole entry C36A/C41F/C46A): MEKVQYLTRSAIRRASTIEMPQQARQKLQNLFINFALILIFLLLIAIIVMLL
Assay: SERCA2a-PLB TR-FRET (fluorescence lifetime) biosensor assay in living cells
Assay type: cell-based
Design: expressed in transfected cells; host or cells: HEK293
QUANTITY NAME: EC50 (µM)

>  <STRUCTURE NOTATION>
O=C(Nc1cccnc1)N1CCC(Cc2cccc(Oc3ccc(C(F)(F)F)cn3)c2)CC1

>  <QUANTITY NAME>
EC50

>  <RELATION OPERATOR>
=

>  <NUMERIC RESULT>
3.2

$$$$
>  <STRUCTURE NOTATION>
NC(=O)N1C(=O)/C(=C(\O)c2cccs2)c2cc(Cl)ccc21

>  <QUANTITY NAME>
EC50

>  <RELATION OPERATOR>
>

>  <NUMERIC RESULT>
100

$$$$

* * *

Biological target: skeletal SR (SERCA1a only) (Oryctolagus cuniculus, UniProt P04191)
Construct: Skeletal muscle SR membrane vesicles were isolated from longissimus dorsi obtained from New Zealand white rabbits; from tissue; host or cells: rabbit longissimus dorsi skeletal muscle, SR membrane vesicles
Sequence (P04191 1-994 isoform P04191-2): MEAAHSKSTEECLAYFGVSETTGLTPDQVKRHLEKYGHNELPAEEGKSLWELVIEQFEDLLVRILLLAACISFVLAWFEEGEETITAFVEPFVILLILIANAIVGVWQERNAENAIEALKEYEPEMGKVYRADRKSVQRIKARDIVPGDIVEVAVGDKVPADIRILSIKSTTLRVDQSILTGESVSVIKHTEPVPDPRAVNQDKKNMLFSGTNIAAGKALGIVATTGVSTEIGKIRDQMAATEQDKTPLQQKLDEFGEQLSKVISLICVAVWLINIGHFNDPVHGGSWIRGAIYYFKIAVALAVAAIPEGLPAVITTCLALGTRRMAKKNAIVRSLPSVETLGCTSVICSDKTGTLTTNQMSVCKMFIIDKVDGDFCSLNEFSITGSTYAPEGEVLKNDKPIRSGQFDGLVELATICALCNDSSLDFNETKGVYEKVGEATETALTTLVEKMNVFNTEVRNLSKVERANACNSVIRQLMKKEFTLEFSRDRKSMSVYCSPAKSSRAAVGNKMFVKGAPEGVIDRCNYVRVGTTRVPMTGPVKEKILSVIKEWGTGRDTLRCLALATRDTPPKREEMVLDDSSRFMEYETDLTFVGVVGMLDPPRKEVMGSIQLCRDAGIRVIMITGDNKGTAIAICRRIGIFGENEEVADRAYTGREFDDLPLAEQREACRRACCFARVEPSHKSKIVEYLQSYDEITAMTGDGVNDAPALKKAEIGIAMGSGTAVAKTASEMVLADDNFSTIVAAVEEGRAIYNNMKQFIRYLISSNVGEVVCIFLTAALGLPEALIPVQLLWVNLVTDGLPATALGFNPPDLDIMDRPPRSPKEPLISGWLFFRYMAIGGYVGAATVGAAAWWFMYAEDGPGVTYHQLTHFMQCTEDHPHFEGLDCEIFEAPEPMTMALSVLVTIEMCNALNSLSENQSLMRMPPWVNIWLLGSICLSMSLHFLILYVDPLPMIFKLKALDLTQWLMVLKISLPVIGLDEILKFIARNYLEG
Test: Ca-ATPase activity of skeletal SR (SSR), NADH-linked enzyme-coupled assay
Type: biochemical, rabbit
Details: SSR, 30 µM compound, relative to DMSO control; read-out: ΔVmax @ 30 µM
Overview of recorded percent change in Vmax vs DMSO control at 30 µM for various molecules
QUANTITY NAME: percent change in Vmax vs DMSO control at 30 µM (%)

>  <MOLECULE>
CCCCN(CC)c1nc(C)nc2c1c(C)cn2-c1c(C)cc(C)cc1C

>  <TARGET DESC>
skeletal SR (SERCA1a only) (Oryctolagus cuniculus, UniProt P04191)

>  <NUMERIC RESULT>
35

$$$$
>  <MOLECULE>
Clc1ccc(C(c2ccc(Cl)cc2)n2cc[n+](CC(OCc3ccc(Cl)cc3Cl)c3ccc(Cl)cc3Cl)c2)cc1 (centres unmarked)

>  <TARGET DESC>
skeletal SR (SERCA1a only) (Oryctolagus cuniculus, UniProt P04191)

>  <NUMERIC RESULT>
-99.5

$$$$
>  <MOLECULE>
NC(=O)N1C(=O)/C(=C(\O)c2cccs2)c2cc(Cl)ccc21

>  <TARGET DESC>
skeletal SR (SERCA1a only) (Oryctolagus cuniculus, UniProt P04191)

>  <NUMERIC RESULT>
1.8

$$$$
>  <MOLECULE>
Cc1[nH]c(=O)c(C#N)cc1-c1ccc2nccn2c1

>  <TARGET DESC>
skeletal SR (SERCA1a only) (Oryctolagus cuniculus, UniProt P04191)

>  <NUMERIC RESULT>
3

$$$$
>  <MOLECULE>
CC1=C(/C=C/C(C)=C/C=C/C(C)=C/C(=O)O)C(C)(C)CCC1

>  <TARGET DESC>
skeletal SR (SERCA1a only) (Oryctolagus cuniculus, UniProt P04191)

>  <NUMERIC RESULT>
-10.6

$$$$
>  <MOLECULE>
C=C(C)[C@H]1Cc2c(ccc3c2O[C@@H]2COc4cc(OC)c(OC)cc4[C@@H]2C3=O)O1

>  <TARGET DESC>
skeletal SR (SERCA1a only) (Oryctolagus cuniculus, UniProt P04191)

>  <NUMERIC RESULT>
0.7

$$$$
>  <MOLECULE>
O=C(Nc1cccnc1)N1CCC(Cc2cccc(Oc3ccc(C(F)(F)F)cn3)c2)CC1

>  <TARGET DESC>
skeletal SR (SERCA1a only) (Oryctolagus cuniculus, UniProt P04191)

>  <NUMERIC RESULT>
-0.2

$$$$
>  <MOLECULE>
CCOc1nc2cccc(C(=O)OC(C)OC(=O)OC3CCCCC3)c2n1Cc1ccc(-c2ccccc2-c2nnn[nH]2)cc1 (centres unmarked)

>  <TARGET DESC>
skeletal SR (SERCA1a only) (Oryctolagus cuniculus, UniProt P04191)

>  <NUMERIC RESULT>
-84.5

$$$$

The measurements presented in this section are drawn from paper PMC6105598.
